- EXPERIMENTAL TARGET: T1, Biotin-huCGRPaSA (human, not fully specified; biotin (position not given))
- T1 construct: exact construct ('aSA') not explained; also called Biotin CGRPaSA; full-length (1-37) CGRP
- T1 peptide: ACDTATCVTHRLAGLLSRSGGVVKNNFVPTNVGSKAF
- RUN DESCRIPTION: ELISA, supernatant; relative to chimeric C245
Label F if Relative binding activity, % falls below 60%; label T in every other case.

Worked examples, 5 binders total:
{"BINDER": "hu231 (antibody, human IgG4 S228P, kappa, V domains shown) VH: QVQLVQSGSELKKPGASVKVSCKASGYTFTGYTMNWVRQAPGQGLEWMGLINPYIGNTHYNQKFKDRFVFSVDRSSSTAYLQISSLKAEDTAVYYCARELDSGFDYWGQGTLVTVSS VL: DVVMTQTPLSLSVTPGQPASISCRSSQNIVHSNGDTYLEWYLQKPGQSPQLLIYKVSNRFSGVPDRFSGSGSGTDFTLKISRVEAEDVGVYYCYQGSHVPWTFGQGTKLEIKR", "CLASS LABEL": "T"}
{"BINDER": "hu158 (antibody, V domains shown, 3E5 HC-2/1A2 LC2-2) VH: QVQLVQSGAEVKKPGASVKVSCKASGYTFTDYNMHWVRQAPGQRLEWMGYISPYNGGTAYNQKFKFRVTLTVDTSSSTAYMELSSLRSEDTAVYYCAREGLGGYWGQGTLVTVSS VL: DIVLTQSPASLAVSPGQRATITCKASQNIDYDGYAYLNWYQQKPGQPPKVLIYSVFNLESGVPARFSGSGSGTDFTLTINPVEADDTANYYCQQSNEFPYTFGQGTKLEIK", "CLASS LABEL": "T"}
{"BINDER": "hu61 (antibody, V domains shown, 1F5 HC-3/2B8 LC2-1) VH: QVQLVQSGAEVKKPGASVKVSCKASGYTFTDFNMHWVRQAPGQGLEWMGYIYPYNGDVVYNQNFTNRVTLTVDTSSSTAYMELRSLRSDDTAVYYCAREGLGGYWGQGTLVTVSS VL: DIVLTQSPDSLAVSLGERATINCQASQNIDGNTYMNWYQQKPGQPPKVLIYSIFNLESGVPDRFSGSGSGTDFTLTISSLQAEDVAVYYCQQSNDYPYTFGQGTKLEIK", "CLASS LABEL": "F"}
{"BINDER": "hu43 (antibody, V domains shown, 1F5 HC-2/1A2 LC2-4) VH: QVQLVQSGAEVKKPGASVKVSCKASGYTFTDFNMHWVRQAPGQRLEWMGYIYPYNGDVVYNQNFTNRVTLTVDTSSSTAYMELSSLRSEDTAVYYCAREGLGGYWGQGTLVTVSS VL: DIQLTQSPSFLSASVGDRVTITCKASQNIDYDGYAYLNWYQQKPGKAPKVLIYSVFNLESGVPSRFSGSGSGTEFTLTISSLQPEDFATYYCQQSNEFPYTFGQGTKLEIK", "CLASS LABEL": "F"}
{"BINDER": "hu20 (antibody, V domains shown, 1B2 HC-2/1F5 LC1-3) VH: QVQLVQSGAEVKKPGASVKVSCKASGYTFTDYNMHWVRQAPGQRLEWMGYIFPYNGVAVYNRKFRSRVTLTVDTSSSTAYMELSSLRSEDTAVYYCAREGLGGYWGQGTLVTVSS VL: DIVLTQSPASLAVSPGQRATITCKASQNIDFDGYAYMNWYQQKPGQPPKVLIYSVFNLESGVPARFSGSGSGTDFTLTINPVEADDTANYYCQQSHEVPYTFGQGTKLEIK", "CLASS LABEL": "F"}

Asked: Record hu116 (antibody, V domains shown, 2B8 HC1-1/3H10 LC2-1) VH: QVQLVQSGAEVKKPGASVKVSCKASGYTFTDYNMHWVRQAPGQGLEWMGNIYPYNGGTVYNQKFNNRVTLTVDTSSSTAYMELSRLRSDDTAVYYCAREGLGGYWGQGTLVTVSS VL: DIVLTQSPDSLAVSLGERATINCKASQNIDYGGYSYMNWYQQKPGQPPKVLIYSVFNLESGVPDRFSGSGSGTDFTLTISSLQAEDVAVYYCQQSNEAPYTFGQGTKLEIK ; criterion: Relative binding activity, % no lower than 60%. Met?
Given back: T

Asked: Next entry: hu38 (antibody, V domains shown, 1F5 HC-1/3H10 LC2-1) VH: QVQLVQSGAEVKKPGASVKVSCKASGYTFIDFNMHWVRQAPGQRLEWMGYIYPYNGDVVYNQNFTNRVTLTVDTSSSTAYMELSSLRSEDTAVYYCAREGLGGYWGQGTLVTVSS VL: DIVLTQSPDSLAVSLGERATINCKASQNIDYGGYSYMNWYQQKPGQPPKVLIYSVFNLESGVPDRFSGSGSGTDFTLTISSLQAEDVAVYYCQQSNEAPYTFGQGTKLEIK
Given back: T

Asked: Next entry: hu140 (antibody, V domains shown, 2B8 HC1-3/2B8 LC2-2) VH: QVQLVQSGAEVKKPGASVKVSCKASGYTFTDYNMHWVRQAPGQGLEWMGNIYPYNAGTVYNQKFNNRVTLTVDTSSSTAYMELSRLRSDDTAVYYCAREGLGGYWGQGTLVTVSS VL: DVQLTQSPSFLSASVGDRVTITCQASQNIDGNTYMNWYQQKPGKAPKVLIYSIFNLESGVPSRFSGSGSGTEFTLTISSLQPEDFATYYCQQSNDYPYTFGQGTKLEIK
Given back: F

Asked: Next entry: hu178 (antibody, V domains shown, 3E5 HC-3/2B8 LC2-1) VH: QVQLVQSGAEVKKPGASVKVSCKASGYTFTDYNMHWVRQAPGQGLEWMGYISPYNGGTAYNQKFKFRVTLTVDTSSSTAYMELSRLRSDDTVVYYCAREGLGGYWGQGTLVTVSS VL: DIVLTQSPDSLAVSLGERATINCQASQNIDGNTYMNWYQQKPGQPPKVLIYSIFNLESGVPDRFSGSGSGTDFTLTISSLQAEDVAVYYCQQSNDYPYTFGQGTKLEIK
Given back: T

Asked: Next entry: hu77 (antibody, V domains shown, 1F5 HC-4/3H10 LC2-1) VH: QVQLVQSGSELKKPGASVKVSCKASGYTFTDFNMHWVRQAPGQGLEWMGYIYPYNGDVVYNQNFTNRFVLSVDSSSSTAYLQISSLKAEDTAVYYCAREGLGGYWGQGTLVTVSS VL: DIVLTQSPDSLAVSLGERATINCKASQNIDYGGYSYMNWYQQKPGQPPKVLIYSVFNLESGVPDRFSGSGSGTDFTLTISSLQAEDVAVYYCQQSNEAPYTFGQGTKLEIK
Given back: T
